Values compiled from patent US5545642A.

# Tested on: Micrococcus luteus 9341
# Measurement description: MIC, agar serial dilution (Iso-Sensitest agar), Micrococcus luteus 9341
# Type: cell-based
# Test conditions: Micrococcus luteus, 9341, 20 h, 37° C., about 20 hours, read-out: MIC
Readout kind: MIC (µg/mL)

[[record]]
molecule = "CN1CCC2=C(C1)CN(c1c(F)cc3c(=O)c(C(=O)O)cn(C4CC4)c3c1F)C2.Cl [Ref. 1, reference compound]"
readout_kind = "MIC"
unit_abbreviation = "µg/mL"
numeric_readout = 0.5

[[record]]
molecule = "CN1CCC2=C(C1)CN(c1c(F)cc3c(=O)c(C(=O)O)cn([C@@H]4C[C@@H]4F)c3c1Cl)C2 (relative stereo) [Example 4]"
readout_kind = "MIC"
unit_abbreviation = "µg/mL"
numeric_readout = 0.125

[[record]]
molecule = "CN1CCC2=C(C1)CN(c1c(F)cc3c(=O)c(C(=O)O)cn([C@@H]4C[C@@H]4F)c3c1F)C2 (relative stereo) [Example 1]"
readout_kind = "MIC"
unit_abbreviation = "µg/mL"
numeric_readout = 0.25

[[record]]
molecule = "CN1CCC2=C(C1)CN(c1c(F)cc3c(=O)c(C(=O)O)cn([C@@H]4C[C@@H]4F)c3c1F)C2 (single isomer, unassigned) [Example 2]"
readout_kind = "MIC"
unit_abbreviation = "µg/mL"
numeric_readout = 0.25

[[record]]
molecule = "CN1CCC2=C(C1)CN(c1c(F)cc3c(=O)c(C(=O)O)cn(C4CC4)c3c1Cl)C2 [Ref. 2, reference compound]"
readout_kind = "MIC"
unit_abbreviation = "µg/mL"
numeric_readout = 0.25


* * *

Entries annotated with measured MIC
# Tested on: Klebsiella sp. 8085
# Measurement description: MIC, agar serial dilution (Iso-Sensitest agar), Klebsiella sp. 8085
# Assay type: cell-based
# Test conditions: 37° C., about 20 hours, read-out: MIC
Readout kind: MIC (µg/mL)

[[record]]
compound = "CN1CCC2=C(C1)CN(c1c(F)cc3c(=O)c(C(=O)O)cn([C@@H]4C[C@@H]4F)c3c1Cl)C2 (relative stereo)"
unit_abbreviation = "µg/mL"
numeric_readout = 0.06

[[record]]
compound = "CN1CCC2=C(C1)CN(c1c(F)cc3c(=O)c(C(=O)O)cn(C4CC4)c3c1Cl)C2 [Ref. 2, reference compound]"
unit_abbreviation = "µg/mL"
numeric_readout = 0.06

[[record]]
compound = "CN1CCC2=C(C1)CN(c1c(F)cc3c(=O)c(C(=O)O)cn(C4CC4)c3c1F)C2.Cl [Ref. 1, reference compound]"
unit_abbreviation = "µg/mL"
numeric_readout = 0.06

[[record]]
compound = "CN1CCC2=C(C1)CN(c1c(F)cc3c(=O)c(C(=O)O)cn([C@@H]4C[C@@H]4F)c3c1F)C2 (relative stereo) [Example 1]"
unit_abbreviation = "µg/mL"
numeric_readout = 0.06

[[record]]
compound = "CN1CCC2=C(C1)CN(c1c(F)cc3c(=O)c(C(=O)O)cn([C@@H]4C[C@@H]4F)c3c1F)C2 (single isomer, unassigned) [Example 2]"
unit_abbreviation = "µg/mL"
numeric_readout = 0.06


* * *

# Measurement description: LD50 following intravenous administration to CFl mice (tolerance)
# Assay type: in vivo
# Test conditions: mouse, in vivo, iv
Readout kind: LD50 (mg/kg)

[[record]]
compound = "CN1CCC2=C(C1)CN(c1c(F)cc3c(=O)c(C(=O)O)cn(C4CC4)c3c1Cl)C2 [Ref. 2, reference compound]"
numeric_readout = 50

[[record]]
compound = "CN1CCC2=C(C1)CN(c1c(F)cc3c(=O)c(C(=O)O)cn(C4CC4)c3c1F)C2.Cl [Ref. 1, reference compound]"
numeric_readout = 50

[[record]]
compound = "CN1CCC2=C(C1)CN(c1c(F)cc3c(=O)c(C(=O)O)cn([C@@H]4C[C@@H]4F)c3c1F)C2 (relative stereo) [Example 1]"
numeric_readout = 150


* * *

# System: Morganella morganii 932
# Measurement description: MIC, agar serial dilution (Iso-Sensitest agar), Morganella morganii 932
# Assay type: cell-based
# Test conditions: 37° C., about 20 hours, read-out: MIC
Readout kind: MIC (µg/mL)

[[record]]
compound = "CN1CCC2=C(C1)CN(c1c(F)cc3c(=O)c(C(=O)O)cn(C4CC4)c3c1Cl)C2 [Ref. 2, reference compound]"
numeric_readout = 0.06

[[record]]
compound = "CN1CCC2=C(C1)CN(c1c(F)cc3c(=O)c(C(=O)O)cn([C@@H]4C[C@@H]4F)c3c1F)C2 (relative stereo) [Example 1]"
numeric_readout = 0.03

[[record]]
compound = "CN1CCC2=C(C1)CN(c1c(F)cc3c(=O)c(C(=O)O)cn(C4CC4)c3c1F)C2.Cl [Ref. 1, reference compound]"
numeric_readout = 0.03

[[record]]
compound = "CN1CCC2=C(C1)CN(c1c(F)cc3c(=O)c(C(=O)O)cn([C@@H]4C[C@@H]4F)c3c1Cl)C2 (relative stereo)"
numeric_readout = 0.06

[[record]]
compound = "CN1CCC2=C(C1)CN(c1c(F)cc3c(=O)c(C(=O)O)cn([C@@H]4C[C@@H]4F)c3c1F)C2 (single isomer, unassigned) [Example 2]"
numeric_readout = 0.06


* * *

# Measurement description: in vitro
# Type: cell-based, Chinese hamster
# Test conditions: hamster, cho-k1 cells
Reported IC50 values for a set of compounds
Readout kind: IC50 (µg/mL)

[[record]]
compound = "CN1CCC2=C(C1)CN(c1c(F)cc3c(=O)c(C(=O)O)cn([C@@H]4C[C@@H]4F)c3c1F)C2 (single isomer, unassigned) [Example 2]"
numeric_readout = 40

[[record]]
compound = "CN1CCC2=C(C1)CN(c1c(F)cc3c(=O)c(C(=O)O)cn(C4CC4)c3c1F)C2.Cl [Ref. 1, hydrochloride, reference compound]"
numeric_readout = 1

[[record]]
compound = "CN1CCC2=C(C1)CN(c1c(F)cc3c(=O)c(C(=O)O)cn([C@@H]4C[C@@H]4F)c3c1F)C2 (relative stereo) [Example 1]"
numeric_readout = 35

[[record]]
compound = "CN1CCC2=C(C1)CN(c1c(F)cc3c(=O)c(C(=O)O)cn(C4CC4)c3c1Cl)C2 [Ref. 2, reference compound]"
numeric_readout = 16


* * *

# Test system: Staphylococcus aureus ICB 25701
# Measurement description: MIC, agar serial dilution (Iso-Sensitest agar), Staphylococcus aureus ICB 25701
# Type: cell-based
# Test conditions: ICB25701, 37° C., about 20 hours, read-out: MIC
Measured MIC accompanies every entry in the list below.
Readout kind: MIC (µg/mL)

[[record]]
compound = "CN1CCC2=C(C1)CN(c1c(F)cc3c(=O)c(C(=O)O)cn(C4CC4)c3c1Cl)C2 [Ref. 2, reference compound]"
target_entity = "Staphylococcus aureus ICB 25701"
unit_abbreviation = "µg/mL"
numeric_readout = 0.5

[[record]]
compound = "CN1CCC2=C(C1)CN(c1c(F)cc3c(=O)c(C(=O)O)cn(C4CC4)c3c1F)C2.Cl [Ref. 1, reference compound]"
target_entity = "Staphylococcus aureus ICB 25701"
unit_abbreviation = "µg/mL"
numeric_readout = 1

[[record]]
compound = "CN1CCC2=C(C1)CN(c1c(F)cc3c(=O)c(C(=O)O)cn([C@@H]4C[C@@H]4F)c3c1F)C2 (relative stereo) [Example 1]"
target_entity = "Staphylococcus aureus ICB 25701"
unit_abbreviation = "µg/mL"
numeric_readout = 0.5

[[record]]
compound = "CN1CCC2=C(C1)CN(c1c(F)cc3c(=O)c(C(=O)O)cn([C@@H]4C[C@@H]4F)c3c1F)C2 (single isomer, unassigned) [Example 2]"
target_entity = "Staphylococcus aureus ICB 25701"
unit_abbreviation = "µg/mL"
numeric_readout = 0.5

[[record]]
compound = "CN1CCC2=C(C1)CN(c1c(F)cc3c(=O)c(C(=O)O)cn([C@@H]4C[C@@H]4F)c3c1Cl)C2 (relative stereo)"
target_entity = "Staphylococcus aureus ICB 25701"
unit_abbreviation = "µg/mL"
numeric_readout = 0.25

